Examples of compounds with documented IC50 follow.
Target: Human Cav3.1 calcium channel (Homo sapiens, UniProt O43497)
Construct: expressed in transfected cells; host or cells: HEK-293 natClytin/TASK1+Cav3.1 cell line
Sequence (O43497 whole entry): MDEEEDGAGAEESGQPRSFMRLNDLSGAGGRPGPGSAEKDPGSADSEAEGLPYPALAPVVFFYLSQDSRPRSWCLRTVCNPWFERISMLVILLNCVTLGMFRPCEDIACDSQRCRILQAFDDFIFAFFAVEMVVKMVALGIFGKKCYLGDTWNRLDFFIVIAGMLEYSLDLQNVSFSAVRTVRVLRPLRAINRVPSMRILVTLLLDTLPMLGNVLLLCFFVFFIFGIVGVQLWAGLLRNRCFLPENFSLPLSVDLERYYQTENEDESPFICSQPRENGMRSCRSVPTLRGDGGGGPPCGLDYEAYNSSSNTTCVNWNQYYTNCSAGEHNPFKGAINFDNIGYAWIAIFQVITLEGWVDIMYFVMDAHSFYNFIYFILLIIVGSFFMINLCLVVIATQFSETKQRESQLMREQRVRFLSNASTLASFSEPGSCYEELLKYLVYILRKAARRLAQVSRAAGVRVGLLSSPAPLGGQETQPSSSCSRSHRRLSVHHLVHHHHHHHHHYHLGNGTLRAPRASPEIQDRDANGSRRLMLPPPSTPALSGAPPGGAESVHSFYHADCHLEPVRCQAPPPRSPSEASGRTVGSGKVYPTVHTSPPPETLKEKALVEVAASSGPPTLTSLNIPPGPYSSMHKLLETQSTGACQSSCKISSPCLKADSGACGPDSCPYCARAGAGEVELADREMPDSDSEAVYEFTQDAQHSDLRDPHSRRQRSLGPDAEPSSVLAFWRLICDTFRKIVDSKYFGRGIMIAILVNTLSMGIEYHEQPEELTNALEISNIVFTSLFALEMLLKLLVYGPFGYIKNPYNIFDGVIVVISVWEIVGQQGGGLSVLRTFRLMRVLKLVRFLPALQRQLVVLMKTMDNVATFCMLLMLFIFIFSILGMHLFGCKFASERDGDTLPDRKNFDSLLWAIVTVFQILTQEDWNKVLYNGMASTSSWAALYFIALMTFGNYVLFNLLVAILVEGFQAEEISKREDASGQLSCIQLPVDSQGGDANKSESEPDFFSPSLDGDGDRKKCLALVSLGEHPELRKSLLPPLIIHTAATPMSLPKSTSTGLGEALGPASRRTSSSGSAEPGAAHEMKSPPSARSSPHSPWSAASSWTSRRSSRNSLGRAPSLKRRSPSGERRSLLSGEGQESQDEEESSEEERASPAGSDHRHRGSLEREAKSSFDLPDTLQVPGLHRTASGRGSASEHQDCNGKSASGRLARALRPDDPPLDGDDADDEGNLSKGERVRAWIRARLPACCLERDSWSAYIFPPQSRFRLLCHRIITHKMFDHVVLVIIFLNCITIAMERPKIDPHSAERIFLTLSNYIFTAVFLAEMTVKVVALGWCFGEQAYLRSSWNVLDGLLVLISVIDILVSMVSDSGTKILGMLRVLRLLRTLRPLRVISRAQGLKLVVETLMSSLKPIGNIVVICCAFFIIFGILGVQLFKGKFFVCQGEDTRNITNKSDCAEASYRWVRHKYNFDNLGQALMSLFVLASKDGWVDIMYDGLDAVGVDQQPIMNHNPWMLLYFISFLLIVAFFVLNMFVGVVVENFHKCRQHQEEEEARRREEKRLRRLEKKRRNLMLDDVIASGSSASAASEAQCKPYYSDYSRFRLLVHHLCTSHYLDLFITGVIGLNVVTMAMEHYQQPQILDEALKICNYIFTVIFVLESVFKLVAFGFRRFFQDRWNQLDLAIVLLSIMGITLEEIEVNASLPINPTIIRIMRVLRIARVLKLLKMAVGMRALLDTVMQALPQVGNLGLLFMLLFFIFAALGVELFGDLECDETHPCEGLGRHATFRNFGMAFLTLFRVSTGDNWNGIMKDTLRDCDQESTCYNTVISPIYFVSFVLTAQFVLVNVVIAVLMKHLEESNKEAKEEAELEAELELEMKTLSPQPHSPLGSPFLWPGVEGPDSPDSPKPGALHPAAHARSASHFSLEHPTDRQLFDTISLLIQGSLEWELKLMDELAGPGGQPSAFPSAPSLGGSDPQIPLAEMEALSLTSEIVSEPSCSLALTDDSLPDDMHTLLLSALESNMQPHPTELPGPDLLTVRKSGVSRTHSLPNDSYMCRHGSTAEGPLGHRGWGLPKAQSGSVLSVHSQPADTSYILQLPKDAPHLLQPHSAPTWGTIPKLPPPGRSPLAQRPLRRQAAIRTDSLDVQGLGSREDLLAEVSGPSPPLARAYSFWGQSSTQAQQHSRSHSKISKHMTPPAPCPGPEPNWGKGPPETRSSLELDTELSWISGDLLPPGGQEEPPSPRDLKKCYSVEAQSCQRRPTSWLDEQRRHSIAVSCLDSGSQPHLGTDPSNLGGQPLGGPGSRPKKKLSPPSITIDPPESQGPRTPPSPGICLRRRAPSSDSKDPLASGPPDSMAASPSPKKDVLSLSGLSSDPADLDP
Test: Human Cav3.1 calcium channel patch clamp assay (SyncroPatch 384PE; single point and IC50, voltage dependent block)
Format: cell-based
Conditions: voltage dependent block (VDB); HEK-293 natClytin/TASK1+Cav3.1 cell line; read-out: Cav3.1 IC50
Method: Certain compounds (as indicated) were tested for Human Cav3.1 calcium channel activity via a patch clamp assay as disclosed herein. Pulse generation and data collection were performed with PatchController384 V1.3.0 and DataController384 V1.2.1 (Nanion Technologies). […] Current was recorded in whole cell configuration from a population of cells. […] Currents were recorded at room temperature. […]
Give your result in nM as a bare value.

// worked examples, IC50 included
COMPOUND	IC50, nM
CC(C)(C)NC(=O)CN1C2CCC1CN(Cc1nc3ccccc3[nH]1)C2 [Compound 188]	485
CC1(S(=O)(=O)NCCN2C3CC2CN(Cc2nc4c(Cl)cc(F)cc4[nH]2)C3)CC1 [Compound 142]	223
Fc1ccc(Cl)c2nc(CN3CCN(CC4(F)CCC(F)(F)CC4)CC3)[nH]c12 [Compound 155]	370
CC(C)(C)NC(=O)CN1CC2COCC(C1)C2CC(=O)Nc1cc(F)cc(Cl)c1 (stereo not shown) [Compound 368]	126
CC(C)(C)NC(=O)CN1C[C@@H]2C[C@H]1CN2CC(=O)NC12CC3CC(CC(Cl)(C3)C1)C2 [Compound 344]	417

[ask] What IC50 value was documented for this compound, Cc1cc(F)cc(NC(=O)CN2C[C@@H]3C[C@H]2CN3CC(=O)NC(C)(C)C)c1 [Compound 276] ?
[reply] 474

[ask] What IC50 value was documented for this compound, CC(C)Cc1cc(CNC(=O)CN2CC3CC(C2)N3CC(=O)NC(C)(C)C)nn1-c1ccccc1 [Compound 301] ?
[reply] 3240

[ask] What IC50 value was documented for this compound, Cc1ccc(NC(=O)CN2C[C@@H]3C[C@H]2CN3CC(=O)NC(C)(C)C)cc1Cl [Compound 362] ?
[reply] 371

[ask] What IC50 value was documented for this compound, O=C(CN1C[C@@H]2C[C@H]1CN2CC(=O)NC1(C(F)(F)F)CC1)Nc1ccc(Cl)c(OC(F)F)c1 [Compound 358] ?
[reply] 172

[ask] What IC50 value was documented for this compound, Fc1cc(Cl)c2nc(CN3CC4CC(C3)N4CC(F)(F)C3CCCCC3)[nH]c2c1 [Compound 167] ?
[reply] 381

[ask] What IC50 value was documented for this compound, Cc1ccc(Cl)cc1NC(=O)CN1CC2CC(C1)N2CC(=O)NC(C)(C)C [Compound 221] ?
[reply] 882

[ask] What IC50 value was documented for this compound, COc1cc(NC(=O)CN2C[C@@H]3C[C@H]2CN3CC(=O)NC2(C(F)(F)F)CC2)ccc1F [Compound 311] ?
[reply] 385

[ask] What IC50 value was documented for this compound, O[C@H]1CC[C@H](OCCN2C3CC2CN(Cc2nc4c(Cl)cc(F)cc4[nH]2)C3)CC1 [Compound 133] ?
[reply] 553

[ask] What IC50 value was documented for this compound, COc1cc(F)cc(NC(=O)CN2C[C@@H]3C[C@H]2CN3CC(=O)NC2(C(F)(F)F)CC2)c1 [Compound 320] ?
[reply] 185

[ask] What IC50 value was documented for this compound, O=C(CN1CC2CC(C1)N2CC(=O)NC1(C(F)(F)F)CC1)NC12CC3CC(CC(C3)C1)C2 [Compound 281] ?
[reply] 900

[ask] What IC50 value was documented for this compound, O=C(CN1C[C@@H]2C[C@H]1CN2CC1(O)CCC(F)(F)CC1)NC12CC3CC(CC(C3)C1)C2 [Compound 277] ?
[reply] 886

[ask] What IC50 value was documented for this compound, COc1ccc(Cl)c2nc(CN3CC4CC(C3)N4CC(=O)NC(C)(C)C)[nH]c12 [Compound 206] ?
[reply] 156
